Source listed as paper PMC5540273.

Test system: ASK1
Construct: gene MAP3K5
REPORTED CONDITIONS: concentration: 1 μM, replicates: in singlicate; n = 1;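 note: KINOMEscan kinase panel screen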
MEASUREMENT KIND: %Inh (%)
A number alone suffices; assume %.

Field: example entries. Status: answers known.
- O=C1NC(=O)C(N2CCc3ccccc32)=C1c1cccc(Cl)c1 [SB-408010]: 0
- COc1ccc(Nc2nccc(N3CCC(NC(=O)Nc4cccc(C(C)=O)c4)C3)n2)cc1 (stereo not shown) [GSK1379731]: 0
- Cl.Nc1ncnc2occ(-c3ccc(NC(=O)Nc4cc(C(F)(F)F)ccc4F)cc3)c12 [SB-707548]: 32

Pending compound:
Give %Inh only, for Cc1nnc(-c2ccc(C)c(-c3ccc(C(=O)Nc4ccc(NS(C)(=O)=O)cc4)cc3)c2)o1 [GW702865] , using ASK1 data.
0

###

Tested on: CDK11
Construct: gene CDK19
REPORTED CONDITIONS: concentration: 1 μM, replicates: in singlicate; n = 1
Entries and their measured %Inh follow.
A number alone suffices; assume %.

Specify %Inh for Fc1ccc(-c2ncn(CCCN3CCOCC3)c2-c2ccccn2)cc1 [SB-211742] and stop.
0

Specify %Inh for COc1ccc(CNC(=O)NC2CCN(c3ccnc(Nc4ccc(OC)cc4)n3)C2)cc1 (stereo not drawn) [GSK1379727] and stop.
1

Specify %Inh for `CN1c2ccc(NCc3ccc(F)cc3)cc2-c2c(cnn2C)S1(=O)=O` and stop.
0

Specify %Inh for CC(C)(C)n1cnc2c(N)ncnc21 [SKF-97359] and stop.
0

Specify %Inh for Nc1nccc(-c2c(-c3ccc(F)cc3)ncn2C2CCN(CC(F)(F)F)CC2)n1 [SB-236560] and stop.
17

Specify %Inh for `O=C(NOCC1CC1)c1ccc(F)c(F)c1Nc1ccc(I)cc1Cl` and stop.
12

Specify %Inh for NS(=O)(=O)CCc1cccc(Nc2nccc(-c3c(-c4cccc(NC(=O)c5c(F)cccc5F)c4)nn4ccccc34)n2)c1 [GSK336735] and stop.
14

Specify %Inh for Cn1cc(-c2ccc3c(c2)CCN3C(=O)Cc2ccccc2Cl)c2c(N)ncnc21 [GSK2608885] and stop.
0

Specify %Inh for `COc1cc2c(cc1OC[C@@H](O)CO)ncc1c3ccc(C#N)cc3[nH]c21` and stop.
20

Specify %Inh for NS(=O)(=O)c1cccc(-c2ccc3ncc(N4CCOCC4)nc3c2)c1 [GSK1535721] and stop.
7

Specify %Inh for O=C(Nc1n[nH]c2cc(-c3cccc(F)c3)ccc12)C1CC1 [SB-735464] and stop.
0

Specify %Inh for `Cn1ccc2ncnc(Oc3ccc(NC(=O)Nc4ccncc4)c(Cl)c3)c21` and stop.
0

Specify %Inh for `Cc1cccc(-c2nc(-c3ccc(S(C)(=O)=O)cc3)sc2-c2ccncc2)c1` and stop.
0

Specify %Inh for Cc1nnc(-c2ccc(C)c(-c3ccc(C(=O)Nc4ccc(NS(C)(=O)=O)cc4)cc3)c2)o1 [GW702865] and stop.
0

Specify %Inh for [2H]C([2H])(c1cccc(C(F)(F)F)c1C)n1ccn2c(=O)nc(N3CCOCC3)cc12 [GSK2336394] and stop.
5

Specify %Inh for CNc1ncnc2[nH]ncc12 [SKF-18355] and stop.
0

Specify %Inh for `Cc1ccc(C(=O)NCC(N)=O)cc1-n1c(C)cc(OCc2ccc(F)cc2F)c(Br)c1=O` and stop.
0

Specify %Inh for `CCc1nc(-c2cccc(C)c2)c(-c2ccnc(NCc3ccccc3)c2)s1` and stop.
0
